ΔTm at 10 µM reference
Biological target: FESA (Homo sapiens, UniProt P07332)
Construct: purchased in-house DSF kinase panel (SGC-style construct names; the trailing letter is the construct ID)
Sequence (P07332 whole entry): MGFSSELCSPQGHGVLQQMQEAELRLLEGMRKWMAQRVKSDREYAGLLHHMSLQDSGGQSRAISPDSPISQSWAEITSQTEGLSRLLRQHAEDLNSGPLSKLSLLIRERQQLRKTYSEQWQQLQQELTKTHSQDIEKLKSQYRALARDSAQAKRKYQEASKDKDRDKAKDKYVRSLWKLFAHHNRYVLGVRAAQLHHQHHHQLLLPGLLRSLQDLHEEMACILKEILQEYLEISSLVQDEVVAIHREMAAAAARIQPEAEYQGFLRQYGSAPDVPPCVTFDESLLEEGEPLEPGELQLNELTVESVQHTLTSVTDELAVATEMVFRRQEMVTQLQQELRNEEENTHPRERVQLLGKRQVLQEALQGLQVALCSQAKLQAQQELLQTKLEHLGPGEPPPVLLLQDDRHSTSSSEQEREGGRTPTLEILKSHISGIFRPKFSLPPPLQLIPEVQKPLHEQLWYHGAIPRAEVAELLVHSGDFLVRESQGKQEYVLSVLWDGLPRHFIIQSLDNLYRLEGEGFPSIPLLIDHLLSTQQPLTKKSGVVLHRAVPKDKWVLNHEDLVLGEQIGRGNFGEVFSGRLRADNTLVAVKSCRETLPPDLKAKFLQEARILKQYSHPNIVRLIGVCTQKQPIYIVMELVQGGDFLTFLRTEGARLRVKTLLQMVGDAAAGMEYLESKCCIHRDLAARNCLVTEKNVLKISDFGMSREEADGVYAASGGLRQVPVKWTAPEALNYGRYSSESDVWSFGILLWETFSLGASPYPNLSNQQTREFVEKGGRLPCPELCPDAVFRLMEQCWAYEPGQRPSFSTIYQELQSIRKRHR
Assay: DSF Tm panel
Format: binding
Conditions: 10 μM compound
MEASURED_ATTRIBUTE: ΔTm at 10 µM (°C)

STRUCTURE_STRING	MEASUREMENT_UNIT	ASSAY_RESULT
O=C(NCc1cccc(Cl)c1)Nc1ccc2cc1OCCOCCNc1ccn3ncc-2c3n1	°C	0.1
O=C(NCc1ccc(Cl)cc1F)Nc1ccc2cc1OCCOCCNc1ccn3ncc-2c3n1	°C	0.6
O=C(NCc1ccccc1)Nc1ccc2cc1OCCOCCNc1ccn3ncc-2c3n1	°C	3
O=C(NCc1ccc(Cl)cc1)Nc1ccc2cc1OCCOCCNc1ccn3ncc-2c3n1	°C	0.4
O=C(NCc1ccccc1C(F)(F)F)Nc1ccc2cc1OCCOCCNc1ccn3ncc-2c3n1	°C	0.7
O=C(NCc1ccc(Cl)cc1Cl)Nc1ccc2cc1OCCOCCNc1ccn3ncc-2c3n1	°C	0.5
COc1ccc(CNC(=O)Nc2ccc3cc2OCCOCCNc2ccn4ncc-3c4n2)cc1F	°C	0.8
CN1CCN(C(=O)Nc2ccc3cc2OCCOCCNc2ccn4ncc-3c4n2)CC1	°C	-0.2
Cc1cc(Cl)ccc1CNC(=O)Nc1ccc2cc1OCCOCCNc1ccn3ncc-2c3n1	°C	0.5
O=C(NCc1ccccc1Cl)Nc1ccc2cc1OCCOCCNc1ccn3ncc-2c3n1	°C	0.2

* * *

Target: STK10 (Homo sapiens, UniProt O94804)
Construct: purchased in-house DSF kinase panel (SGC-style construct names; the trailing letter is the construct ID)
Sequence (O94804 18-317 limits assumed): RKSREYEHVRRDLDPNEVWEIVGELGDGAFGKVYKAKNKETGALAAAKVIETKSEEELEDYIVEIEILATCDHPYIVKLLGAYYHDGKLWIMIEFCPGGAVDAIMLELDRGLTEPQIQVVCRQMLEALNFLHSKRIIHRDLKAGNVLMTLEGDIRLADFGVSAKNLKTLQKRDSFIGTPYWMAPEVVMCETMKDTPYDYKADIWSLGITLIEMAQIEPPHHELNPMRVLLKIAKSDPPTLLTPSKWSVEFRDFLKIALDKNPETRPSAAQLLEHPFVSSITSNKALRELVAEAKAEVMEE
Experiment: DSF Tm panel
Assay type: binding
Conditions: 10 μM compound
ΔTm at 10 µM for assorted compounds
MEASURED_ATTRIBUTE: ΔTm at 10 µM (°C)

STRUCTURE_STRING	ASSAY_RESULT
Cc1cc(C(F)(F)F)ccc1CNC(=O)Nc1ccc2cc1OCCOCCNc1ccn3ncc-2c3n1	9
O=C(NCc1ccccc1)Nc1ccc2cc1OCCOCCNc1ccn3ncc-2c3n1	6.9
COc1cccc(CNC(=O)Nc2ccc3cc2OCCOCCNc2ccn4ncc-3c4n2)c1	7.1
Cc1ccc(F)cc1CNC(=O)Nc1ccc2cc1OCCOCCNc1ccn3ncc-2c3n1	9.2

* * *

Readings of ΔTm at 10 µM for the listed molecules
Molecular target: AAK1 (AAK1A) (Homo sapiens)
Construct: purchased in-house DSF kinase panel (SGC-style construct names; the trailing letter is the construct ID)
Sequence (Q2M2I8 27-365): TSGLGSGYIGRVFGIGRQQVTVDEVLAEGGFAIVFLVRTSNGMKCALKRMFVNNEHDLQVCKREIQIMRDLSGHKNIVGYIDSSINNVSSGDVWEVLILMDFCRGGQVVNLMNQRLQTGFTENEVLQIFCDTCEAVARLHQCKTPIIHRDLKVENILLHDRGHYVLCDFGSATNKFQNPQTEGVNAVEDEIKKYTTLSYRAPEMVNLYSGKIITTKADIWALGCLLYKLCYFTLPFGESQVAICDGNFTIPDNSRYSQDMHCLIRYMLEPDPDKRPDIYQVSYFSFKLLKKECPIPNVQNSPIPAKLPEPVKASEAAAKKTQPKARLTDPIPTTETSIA
Assay: DSF Tm panel
Type: binding
Conditions: 10 μM compound
MEASURED_ATTRIBUTE: ΔTm at 10 µM (°C)

STRUCTURE_STRING	MEASURED_ATTRIBUTE	ASSAY_RESULT
O=C(NCc1cccc(Cl)c1)Nc1ccc2cc1OCCOCCNc1ccn3ncc-2c3n1	ΔTm at 10 µM	5.5
Cc1cc(Cl)ccc1CNC(=O)Nc1ccc2cc1OCCOCCNc1ccn3ncc-2c3n1	ΔTm at 10 µM	6.5
Cc1cc(Br)ccc1CNC(=O)Nc1ccc2cc1OCCOCCNc1ccn3ncc-2c3n1	ΔTm at 10 µM	4

* * *

Biological target: MARK4A (Homo sapiens)
Construct: purchased in-house DSF kinase panel (SGC-style construct names; the trailing letter is the construct ID)
Sequence (Q96L34 59-310): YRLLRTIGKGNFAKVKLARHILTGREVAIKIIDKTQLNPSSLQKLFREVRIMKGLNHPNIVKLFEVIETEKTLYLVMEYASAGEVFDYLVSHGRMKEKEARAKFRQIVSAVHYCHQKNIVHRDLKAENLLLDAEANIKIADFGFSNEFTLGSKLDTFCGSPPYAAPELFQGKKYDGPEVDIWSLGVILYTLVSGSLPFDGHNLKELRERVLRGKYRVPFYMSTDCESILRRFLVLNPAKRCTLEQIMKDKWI
Assay: DSF Tm panel
Format: binding
Conditions: 10 μM compound
MEASURED_ATTRIBUTE: ΔTm at 10 µM (°C)

STRUCTURE_STRING	ASSAY_RESULT
O=C(NCc1ccc(Cl)cc1)Nc1ccc2cc1OCCOCCNc1ccn3ncc-2c3n1	2
Cc1cc(Br)ccc1CNC(=O)Nc1ccc2cc1OCCOCCNc1ccn3ncc-2c3n1	1.9
O=C(NCc1ccccc1Cl)Nc1ccc2cc1OCCOCCNc1ccn3ncc-2c3n1	2.2

* * *

Quick reference: ΔTm at 10 µM of the listed items.
Biological target: MST4A (Homo sapiens, UniProt Q9P289)
Construct: purchased in-house DSF kinase panel (SGC-style construct names; the trailing letter is the construct ID)
Sequence (Q9P289 1-300): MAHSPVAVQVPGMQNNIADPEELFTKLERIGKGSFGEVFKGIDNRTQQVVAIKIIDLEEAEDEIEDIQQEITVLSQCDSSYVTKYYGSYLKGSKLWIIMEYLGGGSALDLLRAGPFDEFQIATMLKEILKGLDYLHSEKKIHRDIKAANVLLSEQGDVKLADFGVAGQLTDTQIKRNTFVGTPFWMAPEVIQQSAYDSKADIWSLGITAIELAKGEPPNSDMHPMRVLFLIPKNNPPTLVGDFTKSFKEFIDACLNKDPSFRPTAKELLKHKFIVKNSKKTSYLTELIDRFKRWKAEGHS
Experiment: DSF Tm panel
Type: binding
Details: 10 μM compound

STRUCTURE_STRING	SYSTEM_TESTED	MEASUREMENT_UNIT	ΔTm at 10 µM
C[C@H](NC(=O)Nc1ccc2cc1OCCOCCNc1ccn3ncc-2c3n1)c1ccccc1	MST4A (Homo sapiens, UniProt Q9P289)	°C	0.4
O=C(NCc1ccccc1C(F)(F)F)Nc1ccc2cc1OCCOCCNc1ccn3ncc-2c3n1	MST4A (Homo sapiens, UniProt Q9P289)	°C	1.9
O=C(NCc1ccc(Cl)cc1Cl)Nc1ccc2cc1OCCOCCNc1ccn3ncc-2c3n1	MST4A (Homo sapiens, UniProt Q9P289)	°C	0.5
CN1CCN(C(=O)Nc2ccc3cc2OCCOCCNc2ccn4ncc-3c4n2)CC1	MST4A (Homo sapiens, UniProt Q9P289)	°C	-0.4
COc1ccc(CNC(=O)Nc2ccc3cc2OCCOCCNc2ccn4ncc-3c4n2)cc1F	MST4A (Homo sapiens, UniProt Q9P289)	°C	1.2
COc1cccc(CNC(=O)Nc2ccc3cc2OCCOCCNc2ccn4ncc-3c4n2)c1	MST4A (Homo sapiens, UniProt Q9P289)	°C	0.3
O=C(NCc1ccc(C(F)(F)F)cc1)Nc1ccc2cc1OCCOCCNc1ccn3ncc-2c3n1	MST4A (Homo sapiens, UniProt Q9P289)	°C	2.1
COc1ccccc1CNC(=O)Nc1ccc2cc1OCCOCCNc1ccn3ncc-2c3n1	MST4A (Homo sapiens, UniProt Q9P289)	°C	0.2
COc1ccc(CNC(=O)Nc2ccc3cc2OCCOCCNc2ccn4ncc-3c4n2)cc1	MST4A (Homo sapiens, UniProt Q9P289)	°C	0.9
O=C(NCc1ccccc1)Nc1ccc2cc1OCCOCCNc1ccn3ncc-2c3n1	MST4A (Homo sapiens, UniProt Q9P289)	°C	1.3
O=C(NCc1cccc(Cl)c1)Nc1ccc2cc1OCCOCCNc1ccn3ncc-2c3n1	MST4A (Homo sapiens, UniProt Q9P289)	°C	0.8

* * *

Molecular target: PAK1A (Homo sapiens)
Construct: purchased in-house DSF kinase panel (SGC-style construct names; the trailing letter is the construct ID)
Sequence (Q13153 249-545): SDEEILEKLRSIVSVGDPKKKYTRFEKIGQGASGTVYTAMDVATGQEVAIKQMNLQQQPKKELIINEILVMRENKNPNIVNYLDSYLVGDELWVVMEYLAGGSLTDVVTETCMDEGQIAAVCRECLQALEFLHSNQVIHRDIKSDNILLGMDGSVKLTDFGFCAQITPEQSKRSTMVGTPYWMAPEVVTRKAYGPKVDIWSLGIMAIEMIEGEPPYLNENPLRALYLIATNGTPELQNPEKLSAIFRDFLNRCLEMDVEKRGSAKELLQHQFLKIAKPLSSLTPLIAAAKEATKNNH
Assay: DSF Tm panel
Assay type: binding
Details: 10 μM compound
MEASURED_ATTRIBUTE: ΔTm at 10 µM

STRUCTURE_STRING	ASSAY_RESULT
COc1cc(CNC(=O)Nc2ccc3cc2OCCOCCNc2ccn4ncc-3c4n2)ccc1F	0.5 °C
COc1ccc(CNC(=O)Nc2ccc3cc2OCCOCCNc2ccn4ncc-3c4n2)cc1F	1 °C
COc1ccc(CNC(=O)Nc2ccc3cc2OCCOCCNc2ccn4ncc-3c4n2)cc1	0.5 °C
O=C(NCc1ccc(Cl)cc1F)Nc1ccc2cc1OCCOCCNc1ccn3ncc-2c3n1	1 °C

* * *

Entries and their ΔTm at 10 µM values follow.
Target: FGFR2A (Homo sapiens)
Construct: purchased in-house DSF kinase panel (SGC-style construct names; the trailing letter is the construct ID)
Sequence (P21802 458-770): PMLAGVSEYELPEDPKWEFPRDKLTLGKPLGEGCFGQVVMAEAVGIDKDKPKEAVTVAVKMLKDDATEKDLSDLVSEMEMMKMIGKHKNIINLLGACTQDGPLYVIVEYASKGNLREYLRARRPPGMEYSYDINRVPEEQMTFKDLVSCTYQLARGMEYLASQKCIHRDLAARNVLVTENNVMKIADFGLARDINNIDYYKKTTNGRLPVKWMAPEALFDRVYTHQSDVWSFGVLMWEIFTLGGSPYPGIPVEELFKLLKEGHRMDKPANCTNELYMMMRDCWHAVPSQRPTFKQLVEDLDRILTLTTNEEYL
Assay: DSF Tm panel
Assay type: binding
Details: 10 μM compound
MEASURED_ATTRIBUTE: ΔTm at 10 µM

MOLECULE	SYSTEM_TESTED	ASSAY_RESULT
O=C(NCc1ccccc1Cl)Nc1ccc2cc1OCCOCCNc1ccn3ncc-2c3n1 [compound 17]	FGFR2A (Homo sapiens)	1.7 °C
O=C(NCc1ccc(Cl)cc1)Nc1ccc2cc1OCCOCCNc1ccn3ncc-2c3n1 [compound 19]	FGFR2A (Homo sapiens)	3.7 °C
COc1ccc(CNC(=O)Nc2ccc3cc2OCCOCCNc2ccn4ncc-3c4n2)cc1 [compound 31]	FGFR2A (Homo sapiens)	3.1 °C
COc1ccccc1CNC(=O)Nc1ccc2cc1OCCOCCNc1ccn3ncc-2c3n1 [compound 29]	FGFR2A (Homo sapiens)	2.9 °C
O=C(NCc1ccccc1C(F)(F)F)Nc1ccc2cc1OCCOCCNc1ccn3ncc-2c3n1 [compound 27]	FGFR2A (Homo sapiens)	2.7 °C
C[C@H](NC(=O)Nc1ccc2cc1OCCOCCNc1ccn3ncc-2c3n1)c1ccccc1 [compound 34]	FGFR2A (Homo sapiens)	2.8 °C
O=C(NCc1ccc(C(F)(F)F)cc1)Nc1ccc2cc1OCCOCCNc1ccn3ncc-2c3n1 [compound 28]	FGFR2A (Homo sapiens)	2.3 °C
COc1cccc(CNC(=O)Nc2ccc3cc2OCCOCCNc2ccn4ncc-3c4n2)c1 [compound 30]	FGFR2A (Homo sapiens)	3.1 °C
COc1ccc(CNC(=O)Nc2ccc3cc2OCCOCCNc2ccn4ncc-3c4n2)cc1F [compound 32]	FGFR2A (Homo sapiens)	2.8 °C
COc1cc(CNC(=O)Nc2ccc3cc2OCCOCCNc2ccn4ncc-3c4n2)ccc1F [compound 33]	FGFR2A (Homo sapiens)	3.7 °C
Cc1cc(Br)ccc1CNC(=O)Nc1ccc2cc1OCCOCCNc1ccn3ncc-2c3n1 [compound 24]	FGFR2A (Homo sapiens)	2.2 °C

* * *

Items are presented alongside their recorded ΔTm at 10 µM.
Target: MAP2K6A (Homo sapiens, UniProt P52564)
Construct: purchased in-house DSF kinase panel (SGC-style construct names; the trailing letter is the construct ID)
Sequence (P52564 53-314): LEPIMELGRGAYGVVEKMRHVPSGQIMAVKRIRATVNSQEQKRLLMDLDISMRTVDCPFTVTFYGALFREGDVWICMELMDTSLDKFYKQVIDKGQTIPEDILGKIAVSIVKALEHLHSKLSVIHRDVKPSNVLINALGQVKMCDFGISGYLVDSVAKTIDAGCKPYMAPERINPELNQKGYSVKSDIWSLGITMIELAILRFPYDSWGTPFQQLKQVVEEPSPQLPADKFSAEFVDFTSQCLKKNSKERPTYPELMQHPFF
Experiment: DSF Tm panel
Type: binding
Conditions: 10 μM compound
MEASURED_ATTRIBUTE: ΔTm at 10 µM (°C)

STRUCTURE_STRING	ASSAY_RESULT
O=C(NCc1ccc(C(F)(F)F)cc1)Nc1ccc2cc1OCCOCCNc1ccn3ncc-2c3n1	1.1
Cc1ccc(F)cc1CNC(=O)Nc1ccc2cc1OCCOCCNc1ccn3ncc-2c3n1	0.7
C[C@H](NC(=O)Nc1ccc2cc1OCCOCCNc1ccn3ncc-2c3n1)c1ccccc1	0.8
